System: T1, tumor necrosis factor-α (TNF-α) (human, UniProt P01375 77-233, biotinylated with NHS-LC-LC-Biotin in the Kd and fluorescence assays; coupled to Epoxy-Activated Sepharose 6B in the column assays)
T1 construct: Bought from Pepro Tech; also called biotin-TNF-α; biotinylated TNF-α
T1 sequence (P01375 77-233 limits assumed): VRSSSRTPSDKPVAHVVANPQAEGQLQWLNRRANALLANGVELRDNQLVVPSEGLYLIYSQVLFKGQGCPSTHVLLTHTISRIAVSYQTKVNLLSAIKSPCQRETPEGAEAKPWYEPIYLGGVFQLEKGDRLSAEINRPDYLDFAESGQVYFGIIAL
Protocol Details: 35S free protein + biotin-TNF-α, capture membrane, equilibrium fit
Please provide measured pKd for the entries that follow.
Lab note: report pKd as minus log10 of the concentration in molar units, number only.

Problem: Specify pKd for T14.20 (designed binder) VSDVPRDLEVVAATPTSRLISWRNIYPIARYYRITYGETGGNSPVQEFTVPPWASIATISGLKPGADYTITVYAVTDKSDTYKYDDPISINYRT and stop.
Result: 9.96

Problem: Identify measured pKd corresponding to M12.19 (designed binder) VSDVPRDLEVVAATPTGLLISWRNNQYTPRHYGITYGETGGKSPVQEFTVPELNPTATISRLKPGVDYTITVYAVTQNGTPRVIYGPISINYRT
Result: 9.22

Problem: Supply reported pKd belonging to this binder: M12.16 (designed binder) VSDVPRDLEVVAATPTSRLISWRPGRTYSRYYRITYGEAGGNSPVQEFTVPPWASIATISGLKPGVDYTITVYAVTDKSGTYRYDDPISINYRT
Result: 9.52

Problem: Hello, please tell me recorded pKd for this one: M12.12 (designed binder) VSDVPSDLEVVAATPTSLLISWEQSPTYGRYYRITYGETGGNSPVQEFTVPGSKSTATISGRKPGADYTITVYAVTIEKDRIPLFGPISISYRT
Result: 9.70
